Tested on: Escherichia coli TOP10
MEASUREMENT_DESCRIPTION: shrunken log2 fold change of peptide-encoding DNA abundance (4.5 h post-induction vs induction); higher = less antimicrobial activity (less host growth inhibition)
STUDY_CONDITIONS: time post-induction: 4.5 h; library: site-saturation at positions 5, 18, 19, 20
This section presents sequences with their documented shrunken log2 fold change values.
Please respond with just the number, no unit label.

Recorded results for 5 sequences are shown here.
RRIRARPPRLPRPRPRPVHEPRP ... 0.00256
RRIRHRPPRLPRPRPRPANDPRP ... -0.0802
RRIRSRPPRLPRPRPRPPDPPRP ... 0.472
RRIRARPPRLPRPRPRPATQPRP ... 0.437
RRIRPRPPRLPRPRPRPIHYPRP ... -0.967

# get_value(readout='shrunken log2 fold change', item= RRIRTRPPRLPRPRPRPMLIPRP )
0.0601

# get_value(readout='shrunken log2 fold change', item= RRIRYRPPRLPRPRPRPQIHPRP )
-1.2

# get_value(readout='shrunken log2 fold change', item= RRIRQRPPRLPRPRPRPASLPRP )
-0.232

# get_value(readout='shrunken log2 fold change', item= RRIRYRPPRLPRPRPRPTEDPRP )
-0.166

# get_value(readout='shrunken log2 fold change', item= RRIRWRPPRLPRPRPRPLDDPRP )
0.454

# get_value(readout='shrunken log2 fold change', item= RRIRFRPPRLPRPRPRPIWDPRP )
-0.319

# get_value(readout='shrunken log2 fold change', item= RRIRCRPPRLPRPRPRPIIEPRP )
-0.851

# get_value(readout='shrunken log2 fold change', item= RRIRERPPRLPRPRPRPDGSPRP )
0.0355

----------
This section presents sequences with their documented shrunken log2 fold change values.
Tested on: Escherichia coli TOP10;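 also: peptides expressed intracellularly from a pBAD plasmid library in pooled LB shake-flask culture, induced with 0.3% L-arabinose, DNA abundance read by NGS, three biological replicates, DESeq2 with apeglm shrinkage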
MEASUREMENT_DESCRIPTION: shrunken log2 fold change of peptide-encoding DNA abundance (4.5 h post-induction vs induction); higher = less antimicrobial activity (less host growth inhibition)
STUDY_CONDITIONS: time post-induction: 4.5 h; library: site-saturation at positions 5, 18, 19, 20
Please respond with just the number, no unit label.

Recorded results for 5 sequences are shown here.
RRIRQRPPRLPRPRPRPSHPPRP ... -0.272
RRIRVRPPRLPRPRPRPATRPRP ... 0.383
RRIRGRPPRLPRPRPRPPCDPRP ... 0.734
RRIRRRPPRLPRPRPRPIFNPRP ... -0.124
RRIRERPPRLPRPRPRPYNPPRP ... 0.00932

# get_value(readout='shrunken log2 fold change', item= RRIRHRPPRLPRPRPRPNHYPRP )
-0.939

# get_value(readout='shrunken log2 fold change', item= RRIRGRPPRLPRPRPRPKGIPRP )
0.529

# get_value(readout='shrunken log2 fold change', item= RRIRMRPPRLPRPRPRPHSYPRP )
-0.0152

# get_value(readout='shrunken log2 fold change', item= RRIRQRPPRLPRPRPRPWQCPRP )
-0.1

# get_value(readout='shrunken log2 fold change', item= RRIRDRPPRLPRPRPRPFVMPRP )
0.0243

# get_value(readout='shrunken log2 fold change', item= RRIRLRPPRLPRPRPRPYLDPRP )
0.0027

# get_value(readout='shrunken log2 fold change', item= RRIRRRPPRLPRPRPRPLETPRP )
1.01

# get_value(readout='shrunken log2 fold change', item= RRIRERPPRLPRPRPRPQNIPRP )
-0.837

# get_value(readout='shrunken log2 fold change', item= RRIRKRPPRLPRPRPRPHLGPRP )
-0.00957

# get_value(readout='shrunken log2 fold change', item= RRIRRRPPRLPRPRPRPNHYPRP )
-0.314
